This collection of values is drawn from patent US11198713B2.

Molecular target: T1, full-length beta-catenin (UniProt P35222 2-781, limits assumed)
T1 construct: mature; also called full-length ß-Catenin; β-catenin
T1 sequence (looked up): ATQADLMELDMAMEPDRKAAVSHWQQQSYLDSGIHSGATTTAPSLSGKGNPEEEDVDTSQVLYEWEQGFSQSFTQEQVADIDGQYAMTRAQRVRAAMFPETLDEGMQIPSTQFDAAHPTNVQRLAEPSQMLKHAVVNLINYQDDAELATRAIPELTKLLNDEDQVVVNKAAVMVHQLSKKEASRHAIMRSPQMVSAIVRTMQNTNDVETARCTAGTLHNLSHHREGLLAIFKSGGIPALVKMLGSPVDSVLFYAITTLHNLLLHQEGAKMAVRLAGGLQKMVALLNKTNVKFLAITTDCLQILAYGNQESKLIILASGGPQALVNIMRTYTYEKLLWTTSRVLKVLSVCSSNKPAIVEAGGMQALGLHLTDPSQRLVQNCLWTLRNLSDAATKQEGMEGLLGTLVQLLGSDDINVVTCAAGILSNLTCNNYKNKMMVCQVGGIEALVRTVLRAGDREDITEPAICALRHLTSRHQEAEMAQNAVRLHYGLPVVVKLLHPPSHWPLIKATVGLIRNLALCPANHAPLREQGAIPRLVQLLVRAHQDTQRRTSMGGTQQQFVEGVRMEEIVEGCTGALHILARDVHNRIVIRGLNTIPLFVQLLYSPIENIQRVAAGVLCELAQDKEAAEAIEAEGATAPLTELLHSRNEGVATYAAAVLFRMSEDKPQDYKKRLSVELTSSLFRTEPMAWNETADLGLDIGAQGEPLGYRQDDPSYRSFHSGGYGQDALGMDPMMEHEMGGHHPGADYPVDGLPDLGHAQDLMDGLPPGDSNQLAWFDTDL
Assay: competition FP
Numbered stars: 1 amine (or outer) side, 2 acyl side, 3 side chain; on linkers, the order of the positions; unused ones are H or OH. Bridge positions count the residues as written; N and C are the ends. Square brackets hold non-standard residues; d marks the D form. Primed or numbered codes have the meaning given here. R4″ = stapling residue, (R)-2-(3-butenyl)alanine (drawn only), C=CCC[C@@](C)(N[*:1])C(=O)[*:2]; MB(3) = Monomer B = PyrS, pyrrolidine stapling residue with allyl carbamate; R7 = (R)-2-(6-heptenyl)alanine, C=CCCCCC[C@@](C)(N[*:1])C(=O)[*:2]; R6 = (R)-2-(5-hexenyl)alanine, C=CCCCC[C@@](C)(N[*:1])C(=O)[*:2]; S6 = (S)-2-(5-hexenyl)alanine, C=CCCCC[C@](C)(N[*:1])C(=O)[*:2]; R4 = (R)-2-(3-butenyl)alanine, C=CCC[C@@](C)(N[*:1])C(=O)[*:2]; MG = Monomer G = RdN, acyclic alkyl-N(Alloc) stapling residue; MC = Monomer C = PyrR, Alloc-pyrrolidine stapling residue; MA = Monomer A (Az), N-Alloc azetidine stapling residue; S7 = C[C@@](CCCCCC=[*:3])(N[*:1])C(=O)[*:2]; R5 = C=CCCC[C@@](C)(N)C(=O)O; S5 = C=CCCC[C@](C)(N)C(=O)O; MB(7) = not defined here
hey, just use true if measured EC50 is less than 1000 nM, otherwise false

[[record]]
binder = "Ac-PQ[MA]ILD[R6]HVRRVWR-NH2 (staple 3-7, also called Az/R6) [FP0725c]"
classification = "true"

[[record]]
binder = "Ac-PQ[R5]ILD[MB(3)]HVRRVWR-NH2 (staple 3-7) [FP0758c]"
classification = "false"

[[record]]
binder = "Ac-PQ[MA]ILD[S7]HVRRVWR-NH2 (staple 3-7) [FP0728c]"
classification = "false"

[[record]]
binder = "Ac-PQ[R4″]ILD[MA]HVRRVWR-NH2 (staple 3-7) [FP0731c]"
classification = "false"

[[record]]
binder = "Ac-PQ[S7]ILD[MA]HVRRVWR-NH2 (staple 3-7) [FP0738c]"
classification = "false"

[[record]]
binder = "Ac-PQ[R6]ILD[MA]HVRRVWR-NH2 (staple 3-7) [FP0735c]"
classification = "false"

[[record]]
binder = "Ac-PQ[S7]ILD[MB(7)]HVRRVWR-NH2 (staple 3-7; reading uncertain, also called S7/PS) [FP0763c]"
classification = "true"

[[record]]
binder = "Ac-PQ[S6]ILD[MA]HVRRVWR-NH2 (staple 3-7) [FP0736c]"
classification = "true"

[[record]]
binder = "Ac-PQ[MA]ILD[S5]HVRRVWR-NH2 (staple 3-7) [FP0724c]"
classification = "true"

[[record]]
binder = "Ac-PQ[MA]ILD[R5]HVRRVWR-NH2 (staple 3-7) [FP0723c]"
classification = "false"

[[record]]
binder = "Ac-PQ[MC]ILD[R6]HVRRVWR-NH2 (staple 3-7) [FP0745c]"
classification = "true"

[[record]]
binder = "Ac-PQ[MA]ILD[R4]HVRRVWR-NH2 (staple 3-7) [FP0721c]"
classification = "false"

[[record]]
binder = "Ac-PQ[MC]ILD[R5]HVRRVWR-NH2 (staple 3-7) [FP0743c]"
classification = "true"

[[record]]
binder = "Ac-PQ[R6]ILD[MC]HVRRVWR-NH2 (staple 3-7; also: carbamate staple (-N(R')-C(O)-O-) by ring-closing olefin metathesis, also called R6/PR) [FP0767c]"
classification = "true"

[[record]]
binder = "Ac-PQ[R5]ILD[MA]HVRRVWR-NH2 (staple 3-7) [FP0733c]"
classification = "true"

[[record]]
binder = "Ac-PQ[R5]ILD[MC]HVRRVWR-NH2 (staple 3-7, also called R5/PR) [FP0766c]"
classification = "true"

[[record]]
binder = "Ac-PQ[MB(3)]ILD[S6]HVRRVWR-NH2 (staple 3-7) [FP0752c]"
classification = "false"

[[record]]
binder = "Ac-PQ[R7]ILD[MC]HVRRVWR-NH2 (staple 3-7; also: carbamate staple (-N(R')-C(O)-O-) by ring-closing olefin metathesis, also called R7/PR) [FP0768c]"
classification = "true"

[[record]]
binder = "Ac-PQ[MG]ILD[R5]HVRRVWR-NH2 (staple 3-7; also: carbamate staple (-N(R')-C(O)-O-) by ring-closing olefin metathesis) [FP0782c]"
classification = "true"

[[record]]
binder = "Ac-PQ[R5]ILD[MG]HVRRVWR-NH2 (staple 3-7; also: carbamate staple (-N(R')-C(O)-O-) by ring-closing olefin metathesis) [FP0776c]"
classification = "true"

[[record]]
binder = "Ac-PQ[S6]ILD[MB(7)]HVRRVWR-NH2 (staple 3-7; reading uncertain) [FP0761c]"
classification = "true"

